Assay: Oral bioavailability of hydrocodone conjugates in rats
Conditions: oral, rats, relative to hydrocodone
No end group written: not given here.
Recorded endpoint: bioavailability (% HC) oral AUC
Answers are plain numbers, in % HC.

| Substance | Recorded endpoint | Readout unit | Result |
| --- | --- | --- | --- |
| Asp-Asp-Pro-Pro-Ile-HC (DDPPI-hydrocodone) | bioavailability (% HC) oral AUC | % HC | 92 |
| Glu-Glu-Ile-HC | bioavailability (% HC) oral AUC | % HC | 83 |
| Glu-Glu-Phe-Phe-Phe-Hydrocodone (EEFFF-hydrocodone) [Glu-Glu-Phe-Phe-Phe-HC] | bioavailability (% HC) oral AUC | % HC | 83 |
| Pro-Pro-Leu-HC | bioavailability (% HC) oral AUC | % HC | 94 |
| Tyr-Tyr-Phe-Phe-Ile-HC | bioavailability (% HC) oral AUC | % HC | 113 |
| Tyr-Tyr-Ile-HC | bioavailability (% HC) oral AUC | % HC | 145 |

Now look at this entry.
INPUT: Requested field: bioavailability (% HC) oral AUC. Item: Glu-Glu-Gly-Gly-Phe-HC (EEGGF-hydrocodone)
OUTPUT: 110
